These entries and their values trace back to the RNAGym collection of RNA variant scans (doi:10.7554/elife.80360).

B1: HDV Ribozyme (parent)
chain: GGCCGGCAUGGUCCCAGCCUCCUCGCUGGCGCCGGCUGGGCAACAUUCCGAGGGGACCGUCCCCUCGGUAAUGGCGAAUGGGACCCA

- Variants of: B1
- Experiment: self-cleavage, relative activity (ratio to wild type); higher = more cleavage; co-transcriptional
Test Readout: self-cleavage
Please reply with the value in numeric form only.

Study these solved cases before continuing.
The measured self-cleavage associated with "GGCCGGCAUGGUCCCAGCCUCCUCGCUGGCGCCAGCUGGGCAACAUUCCGAGGGGACCGUCCCCUCGGUAAUGGCGGAUGGGACCCA" reads 0.0639

The measured self-cleavage associated with "GGCCGGCAUGGUCCCAGCCUCCUCGCUGGCGCCGGCUGGACAACAUUCCGAGGGGCCCGUCCCCUCGGUAAUGGCGAAUGGGACCCA" reads 0.878

The measured self-cleavage associated with "GGCCGGCAUGGUCCCAGCCUCCUCGCUGGCGCCGGCUGGGCAACAUUCCGAGGGGACCGUCCCCUAGGCAAUGGCGAAUGGGACCCA" reads 1.1

The measured self-cleavage associated with "GGCCGGGAUGGUCCCAUCCUCCUCGCUGGCGCCGGCUGGGCAACAUUCCGAGGGGACCGUCCCCUCGGUAAUGGCGAAUGGGACCCA" reads 0

The measured self-cleavage associated with "GGCCGGCAUGGUCCCAGCCUCCUCGCUGGCGCCGGCUGGCCAACAUUCCGAGGGGACCGUACCCUCGGUAAUGGCGAAUGGGACCCA" reads 0.256

Continuing:
The measured self-cleavage associated with "GGCCGGCAUGGUCCCAGCCUCCGCGCUGGCGCCGGCUGUGCAACAUUCCGAGGGGACCGUCCCCUCGGUAAUGGCGAAUGGGACCCA" reads 0.405

The measured self-cleavage associated with "GGCCGGCAUGGUCCCAGCCUCCUCGCUGGCGGCGGCUGGGCAACAUUCCGAGGGGACCGACCCCUCGGUAAUGGCGAAUGGGACCCA" reads 0.131

The measured self-cleavage associated with "GGCCGGCAUGGUCCCAGCCUCCUCGCUGGCGCCGGCUGGGCAACAUUCCGACGGGACCGUCCCCUCGGUAAUGGCGAACGGGACCCA" reads 0.582

The measured self-cleavage associated with "GGCCGGCAUGGUGCCAGCCUCCUCGCUGGCGCCGGCUGGGCAACAUUCCGAGGGGACUGUCCCCUCGGUAAUGGCGAAUGGGACCCA" reads 0.0898

The measured self-cleavage associated with "GGCCGGCAUGGUCCCAGCCUCCUCGUUGGCGCCGGCUGGGCAACAUUCCGAGUGGACCGUCCCCUCGGUAAUGGCGAAUGGGACCCA" reads 1.22

The measured self-cleavage associated with "GGCCGGCAAGGUCCCAGCCUCCUCGCUGGCGCCGGCUGGGCAACAUUCCGAGGGGACCGUCCCCUCAGUAAUGGCGAAUGGGACCCA" reads 0.937
